Ref: patent US20260242478A1

Exercise: state measured Phage binding ELISA signal, Anti-PSMA Fab in presence of PSMA for each of the binders provided.
Target: T1, PSMA Fab (006 PSMA Fab)
T1 construct: also called Anti-PSMA Fab; anti-PSMA Fab
Experiment: phage ELISA; biotinylated PSMA Fab on neutravidin plate pre-incubated with PSMA antigen as competitor, anti-M13 HRP detection;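 note: crude clonal phage supernatants tested, compared against control wells pre-incubated with blocking buffer only, without PSMA antigen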
Where no end group is shown, it is not given here.
# output: bare number, no unit

The reported value for GLRMCEPMWMCQGF (cysteine pairing not given here; also: displayed on phage as pIII fusion) [Phage-3772] in terms of Phage binding ELISA signal, Anti-PSMA Fab in presence of PSMA is 0.0749

The reported value for WEGFCVPTWMCDGF [Phage-3774] in terms of Phage binding ELISA signal, Anti-PSMA Fab in presence of PSMA is 0.0864

The reported value for SVVKCVPSWMCTGF [Phage-3785] in terms of Phage binding ELISA signal, Anti-PSMA Fab in presence of PSMA is 0.0729

The reported value for PVQLCIPSWMCDGF [Phage-3776] in terms of Phage binding ELISA signal, Anti-PSMA Fab in presence of PSMA is 0.0876

The reported value for ISPICRPAWMCHGF [Phage-3777] in terms of Phage binding ELISA signal, Anti-PSMA Fab in presence of PSMA is 0.0873

The reported value for HMPLCIPVWMCAGF (not fully specified (residue 3); cysteine pairing not given here; also: displayed on phage as fusion to pIII, junction not given here) [Phage-3780] in terms of Phage binding ELISA signal, Anti-PSMA Fab in presence of PSMA is 0.113

The reported value for VTTLCRPAWMCHGF [Phage-3778] in terms of Phage binding ELISA signal, Anti-PSMA Fab in presence of PSMA is 0.0881

The reported value for VHRMCEPKWMCEGF [Phage-3773] in terms of Phage binding ELISA signal, Anti-PSMA Fab in presence of PSMA is 0.0695

The reported value for VEVRCVPAWMCEGL [Phage-3783] in terms of Phage binding ELISA signal, Anti-PSMA Fab in presence of PSMA is 0.0698

The reported value for VQLMCMPEWMCSGL [Phage-3775] in terms of Phage binding ELISA signal, Anti-PSMA Fab in presence of PSMA is 0.0599

The reported value for PGASCVPAWMCDGF [Phage-3784] in terms of Phage binding ELISA signal, Anti-PSMA Fab in presence of PSMA is 0.0653

The reported value for YSNFCVPHWMCSGF [Phage-3782] in terms of Phage binding ELISA signal, Anti-PSMA Fab in presence of PSMA is 0.0679

The reported value for LVARCVPEWMCAGF (cysteine pairing not given here; also: displayed on phage as fusion to pIII, junction not given here) [Phage-3781] in terms of Phage binding ELISA signal, Anti-PSMA Fab in presence of PSMA is 0.102

The reported value for EYQRCIPEWMCSGF [Phage-3779] in terms of Phage binding ELISA signal, Anti-PSMA Fab in presence of PSMA is 0.0735
